Origin of values: patent US4960787A

# experimental.target: 5-lipoxygenase (Cavia porcellus)
# Construct: A-23187-stimulated guinea pig polymorphonuclear leukocytes; endogenous in cells
# Sequence (A0A286X958 1-674): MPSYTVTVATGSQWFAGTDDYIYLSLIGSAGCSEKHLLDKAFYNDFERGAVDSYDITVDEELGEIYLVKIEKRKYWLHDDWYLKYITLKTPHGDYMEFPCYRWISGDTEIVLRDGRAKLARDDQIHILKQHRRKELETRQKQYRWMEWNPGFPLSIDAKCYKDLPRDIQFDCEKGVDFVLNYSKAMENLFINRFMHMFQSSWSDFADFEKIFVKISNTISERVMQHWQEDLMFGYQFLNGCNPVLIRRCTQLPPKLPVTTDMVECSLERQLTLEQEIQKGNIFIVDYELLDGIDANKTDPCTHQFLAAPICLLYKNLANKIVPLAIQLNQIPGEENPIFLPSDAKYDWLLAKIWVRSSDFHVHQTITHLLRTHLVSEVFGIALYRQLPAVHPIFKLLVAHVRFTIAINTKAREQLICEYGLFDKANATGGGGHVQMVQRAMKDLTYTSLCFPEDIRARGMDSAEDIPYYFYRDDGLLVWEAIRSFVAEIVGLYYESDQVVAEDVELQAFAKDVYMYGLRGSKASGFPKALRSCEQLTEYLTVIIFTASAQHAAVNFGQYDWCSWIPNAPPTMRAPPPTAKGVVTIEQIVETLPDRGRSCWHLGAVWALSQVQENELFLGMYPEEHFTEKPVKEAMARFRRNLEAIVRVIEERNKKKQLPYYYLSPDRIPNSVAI
# experiment: inhibition of 5-HETE and LTB4 synthesis in A-23187-stimulated guinea pig polymorphonuclear leukocytes
# condition.label: also printed as 1×10^-7 M, read-out: IC50, inhibition of the formation of 5-HETE and leukotriene B4 (LTB4)

{"molecule": "CN(O)C(=O)/C=C/c1ccn(C2CCCCCC2)c1 [example 1a]", "IC50": "~100 nM"}
